All values here come from patent US8476298B2.

ASSAYED SYSTEM: Flt-3 (baculovirus expressed human Flt-3 kinase domain R571-S993) (Homo sapiens, UniProt P36888)
Construct: human Flt-3 kinase domain R571-S993; host or cells: baculovirus expression
Sequence (P36888 571-993): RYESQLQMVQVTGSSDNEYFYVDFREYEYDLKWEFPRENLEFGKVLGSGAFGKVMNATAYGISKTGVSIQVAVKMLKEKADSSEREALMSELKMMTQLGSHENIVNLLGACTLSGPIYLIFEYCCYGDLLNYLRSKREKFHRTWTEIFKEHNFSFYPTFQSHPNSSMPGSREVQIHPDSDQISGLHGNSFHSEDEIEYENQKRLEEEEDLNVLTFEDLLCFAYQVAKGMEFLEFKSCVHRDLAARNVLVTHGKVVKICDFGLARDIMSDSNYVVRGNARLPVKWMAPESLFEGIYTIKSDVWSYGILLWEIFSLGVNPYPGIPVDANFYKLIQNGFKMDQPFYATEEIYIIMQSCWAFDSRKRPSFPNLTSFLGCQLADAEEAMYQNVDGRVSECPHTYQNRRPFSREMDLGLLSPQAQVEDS
PROTOCOL SUMMARY: biochemical
REPORTED CONDITIONS: read-out: flt3 IC50
EXPERIMENTAL READOUT: IC50

These solved cases illustrate the format of a correct answer.
* CCN(CC)CCCOc1cc2nccc(Oc3ccc(NC(=O)[C@]4(C(=O)Nc5ccc(F)cc5)C[C@@H]4C)cc3F)c2cc1OC [Example 361] | < 0.05 µM
* COc1cc2nccc(Oc3ccc(NC(=O)C4(C(=O)Nc5ccccc5CN5CCOCC5)CC4)cc3)c2cc1OC [Example 397] | 0.05 to 0.5 µM
* COc1cc2nccc(Oc3ccc(NC(=O)C4(C(=O)Nc5ccccc5CN5CCCCC5)CC4)cc3)c2cc1OC [Example 394] | 0.05 to 0.5 µM
* COc1cc2nccc(Oc3ncc(NC(=O)CC(=O)Nc4ccccc4)cc3Cl)c2cc1OC [Example 291] | < 0.05 µM
* COc1cc2nccc(Oc3ccc(NC(=O)C4(C(=O)Nc5cccc(CN)c5)CC4)cc3)c2cc1OC [Example 399] | 0.05 to 0.5 µM

Q) Value lookup for IC50; key = CCCCNC(=O)C(=O)Nc1ccc(Oc2ccnc3cc(OCC4CCNCC4)c(OC)cc23)c(F)c1 [Example 295]
A) 0.05 to 0.5 µM

Q) Try this compound next: COc1cc2c(Oc3ccc(NC(=O)[C@@]4(C(=O)Nc5ccc(F)cc5)[C@H](C)[C@@H]4C)cc3F)ncnc2cc1OCCCN1CCOCC1 [Example 367]
A) 0.05 to 0.5 µM

Q) Another compound to look at: COc1cc2c(Oc3ccc(NC(=O)C(=O)NCCc4ccccc4)cc3F)ncnc2cc1OCC1C[C@H]2CNC[C@H]2C1 (stereo partly shown) [Example 285]
A) < 0.05 µM

Q) Continue with COc1cc2c(Oc3ncc(NC(=O)C4(C(=O)Nc5ccc(F)cc5)CC4)cc3Cl)ccnc2cc1OCC1CCNCC1 [Example 282]
A) < 0.05 µM

Q) Subsequent entry: COc1cc2nccc(Oc3c(F)cc(NC(=O)C4(C(=O)Nc5ccc(F)cc5)CC4)c(F)c3F)c2cc1OC [Example 327]
A) 0.05 to 0.5 µM

====

ASSAYED SYSTEM: c-Met (baculovirus expressed human c-Met kinase domain P948-S1343) (Homo sapiens)
Construct: human c-Met kinase domain P948-S1343; host or cells: baculovirus expression
Sequence (P08581 1011-1343 limits assumed): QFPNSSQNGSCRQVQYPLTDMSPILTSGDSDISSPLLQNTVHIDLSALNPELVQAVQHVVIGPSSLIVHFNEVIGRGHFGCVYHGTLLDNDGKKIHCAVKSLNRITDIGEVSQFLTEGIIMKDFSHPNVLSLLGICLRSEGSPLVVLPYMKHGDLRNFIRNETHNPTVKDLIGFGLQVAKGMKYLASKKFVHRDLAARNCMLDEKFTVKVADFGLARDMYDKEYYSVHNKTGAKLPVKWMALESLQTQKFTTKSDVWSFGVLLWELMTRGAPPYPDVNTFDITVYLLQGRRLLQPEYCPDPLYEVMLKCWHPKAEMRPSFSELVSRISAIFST
PROTOCOL SUMMARY: c-Met Luciferase-Coupled Chemiluminescent Kinase assay (LCCA);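 further: kinase activity read as percent ATP left after reaction, by luciferase-luciferin chemiluminescence, with 1 µM ATP and 1 µM poly-EY substrate, 2 h at ambient temperature, 10-point dose-response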
Assay type: biochemical
EXPERIMENTAL READOUT: IC50

Solved entries (count: 4):
- COc1cc2nccc(Oc3ccc(NC(=O)C4(C(=O)NCCN5CCOCC5)CC4)cc3)c2cc1OC: 500 to 5000 nM
- COc1cc2nccc(Oc3ncc(NC(=O)C4(C(=O)NCCc5ccccc5)CC4)cc3Cl)c2cc1OC: 500 to 5000 nM
- COc1cc2c(Oc3ccc(NC(=O)[C@]4(C(=O)Nc5ccc(F)cc5)C[C@H]4C)cc3F)ncnc2cc1OCCCN1CCN(C)CC1: < 50 nM
- COc1cc2nccc(Oc3ccc(NC(=O)C4(C(=O)Nc5ccc(F)cc5)CC4)c(C)c3)c2cc1OC: < 50 nM

Q) GET /values?readout=IC50&item= `COc1cc2c(Oc3ccc(NC(=O)C4(C(=O)Nc5ccc(F)cc5)CC4)cc3F)ccnc2cc1OCCCN1CCN(C(=O)OC(C)(C)C)CC1`
A) < 50 nM

Q) Let us now turn to `COc1cc2c(Oc3ccc(NC(=O)C(=O)NCCN4CCOCC4)cc3F)ccnc2cc1OCC1CCNCC1`
A) 50 to 500 nM

Q) Try the molecule `COc1cc2nccc(Oc3c(F)cc(NC(=O)C4(C(=O)Nc5ccc(F)cc5)CC4)c(F)c3F)c2cc1OC`
A) < 50 nM

Q) Same question, `COc1cc2nccc(Oc3ccc(NC(=O)C4(C(=O)Nc5ccccc5CN5CCCCC5)CC4)cc3)c2cc1OC` this time
A) 50 to 500 nM

Q) Now the same for `COc1cc2nccc(Oc3cc(Cl)c(NC(=O)C4(C(=O)Nc5ccc(F)cc5)CC4)cc3F)c2cc1OC`
A) < 50 nM

Q) What would you report for `COc1cc2c(Oc3ccc(NC(=O)[C@@]4(C(=O)Nc5ccc(F)cc5)[C@H](C)[C@@H]4C)cc3F)ncnc2cc1OCCCN1CCN(C)CC1` ?
A) < 50 nM

Q) And then `CCN(CC)CCOc1cc2nccc(Oc3ccc(NC(=O)[C@@]4(C(=O)Nc5ccc(F)cc5)[C@H](C)[C@@H]4C)cc3F)c2cc1OC` , what is it?
A) < 50 nM

Q) Now this one: `COc1cc2c(Oc3ncc(NC(=O)C4(C(=O)Nc5ccc(F)cc5)CC4)cc3Cl)ccnc2cc1OCc1ccccc1`
A) < 50 nM

====

// pIC50 lookup, one value per entry
ASSAYED SYSTEM: Flt-3 (baculovirus expressed human Flt-3 kinase domain R571-S993) (Homo sapiens);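 further: Luciferase-coupled chemiluminescent kinase assay, activity read as percent ATP left after a 3 h reaction at room temperature, ATP near KM, 10-point dose-response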
Construct: human Flt-3 kinase domain R571-S993; host or cells: baculovirus expression
PROTOCOL SUMMARY: biochemical
REPORTED CONDITIONS: read-out: flt3 IC50
pIC50: −log10 of the molar value.

Guide cases for pIC50, answers given:
- COc1cc2c(Oc3ccc(NC(=O)C(=O)NCCc4ccc(N)cc4)cc3F)ccnc2cc1OCC1CCNCC1 [Example 286]: 6.30 to 7.30
- COc1cc2c(Oc3ccc(NC(=O)C4(C(=O)Nc5ccc(F)cc5)CC4(C)C)cc3F)ncnc2cc1OCCCN1CCOCC1 (stereo not drawn) [Example 373]: 5.30 to 6.30
- COc1cc2nccc(Oc3c(F)cc(NC(=O)C4(C(=O)Nc5ccc(F)cc5)CC4)cc3F)c2cc1OC [Example 323]: > 7.30
- CCN(CC)CCCOc1cc2nccc(Oc3ccc(NC(=O)C4(C(=O)Nc5ccc(F)cc5)CC4(C)C)cc3F)c2cc1OC (stereo not drawn) [Example 372]: 6.30 to 7.30
- COc1cc2c(Oc3ccc(NC(=O)[C@]4(C(=O)Nc5ccc(F)cc5)C[C@H]4C)cc3F)ccnc2cc1OCCCN1CCOCC1 [Example 343]: > 7.30
- CCN(CC)CCCOc1cc2nccc(Oc3ccc(NC(=O)C4(C(=O)Nc5ccc(F)cc5)CC4)cc3F)c2cc1OC [Example 336]: > 7.30
- CCN(CC)CCOc1cc2nccc(Oc3ccc(NC(=O)[C@]4(C(=O)Nc5ccc(F)cc5)C[C@@H]4C)cc3F)c2cc1OC [Example 362]: > 7.30
- COc1cc2ncnc(Oc3ccc(NC(=O)C4(C(=O)Nc5ccc(F)cc5)CC4)cc3F)c2cc1OCC1CCN(C)CC1 [Example 325]: > 7.30

Q) # query: pIC50 of entry COc1cc2nccc(Oc3ccc(NC(=O)C4(C(=O)Nc5ccccc5)CC4)cc3)c2cc1OC [Example 398]
A) > 7.30

Q) Subsequent entry: CCN(C)C(=O)C(=O)Nc1ccc(Oc2ccnc3cc(OCC4CCNCC4)c(OC)cc23)c(F)c1 [Example 300]
A) 6.30 to 7.30

Q) Lookup COc1cc2c(Oc3cc(C)c(NC(=O)C4(C(=O)Nc5ccc(F)cc5)CC4)cc3F)ccnc2cc1OCCCN1CCOCC1 [Example 326]
A) 6.30 to 7.30

Q) Another molecule to look at: CCN(CC)CCOc1cc2nccc(Oc3ccc(NC(=O)C4(C(=O)Nc5ccc(F)cc5)CC4)cc3F)c2cc1OC [Example 304]
A) > 7.30

Q) // repeat for CCN(CC)CCOc1cc2ncnc(Oc3ccc(NC(=O)C4(C(=O)Nc5ccc(F)cc5)CC4(C)C)cc3F)c2cc1OC (stereo not drawn) [Example 378] and report
A) 5.30 to 6.30

Q) Next molecule up: COc1cc2nccc(Oc3ccc(NC(=O)CC(=O)Nc4ccc(F)cc4)cc3)c2cc1OC [Example 288]
A) > 7.30

Q) What would you report for CCNC(=O)C(=O)Nc1ccc(Oc2ccnc3cc(OCC4CCNCC4)c(OC)cc23)c(F)c1 [Example 293] ?
A) 6.30 to 7.30

Q) Can you check COc1cc2c(Oc3ccc(NC(=O)C4(C(=O)Nc5ccc(F)cc5)CC4)cc3F)ccnc2cc1OCCCN1CCN(C(C)C)CC1 [Example 357] next?
A) > 7.30

Q) Query CCN(CC)CCCOc1cc2nccc(Oc3ccc(NC(=O)C4(C(=O)Nc5ccc(F)cc5)[C@H](C)[C@H]4C)cc3F)c2cc1OC (stereo partly drawn) [Example 371] next
A) 6.30 to 7.30

Q) For COc1cc2c(Oc3ccc(NC(=O)[C@@]4(C(=O)Nc5ccc(F)cc5)[C@H](C)[C@@H]4C)cc3F)ccnc2cc1OCCCN1CCN(C)CC1 [Example 366] then?
A) 6.30 to 7.30

Q) Similarly, CCN(CC)CCOc1cc2ncnc(Oc3ccc(NC(=O)C4(C(=O)Nc5ccc(F)cc5)[C@H](C)[C@H]4C)cc3F)c2cc1OC (stereo partly drawn) [Example 388] ?
A) 5.30 to 6.30

Q) Okay, and COc1cc2c(Oc3ccc(NC(=O)C(=O)NC(C)c4ccc(F)cc4)cc3F)ccnc2cc1OCC1CCNCC1 (stereo not drawn) [Example 283] ?
A) > 7.30

Q) Also CCN(CC)CCOc1cc2nccc(Oc3ccc(NC(=O)[C@@]4(C(=O)Nc5ccc(F)cc5)[C@H](C)[C@@H]4C)cc3F)c2cc1OC [Example 376] ?
A) 6.30 to 7.30
